Hello, the source for this data is ChEMBL document CHEMBL1255303, in case you need it.

System: Scedosporium boydii
test.method.notes: Antifungal activity against Pseudallescheria boydii NBRC 32229 after 72 hrs by broth microdilution method
Type: functional
particulars: NBRC 32229, 72 h
Starred links: 1 amine or outer side, 2 acyl side, 3 side chain; linkers in the order of their positions; H or OH if unused. Positions of bridges follow the written chain, without caps; N, C: chain ends. Non-standard residues stand in square brackets, D forms with d. Residues, ends and D or L forms follow the SMILES beside them. *: point of attachment. hTyr(3S-OH,4S-OH,3'-OSO3H) = N[C@H](C(=O)O)[C@H](O)[C@@H](O)c1ccc(O)c(OS(=O)(=O)O)c1; Orn(4R-OH,5R-OH) = O=C([C@H](C[C@@H](O)[C@@H](O)N[*:3])N[*:1])[*:2]; Pro(3S-OH,4S-Me) = C[C@H]1CN[C@H](C(=O)O)[C@H]1O; X1 = CCCCCOc1ccc(-c2cc(-c3ccc(C(=O)*)cc3)no2)cc1; Gln(3R-OH) = NC(=O)C[C@@H](O)[C@H](N)C(=O)O; Hyp = O=C(O)[C@@H]1C[C@@H](O)CN1
assay.readout: MIC (µg/mL)

1. C[C@@H](c1ncncc1F)[C@](O)(Cn1cncn1)c1ccc(F)cc1F [VORICONAZOLE]    1
2. OC(Cn1cncn1)(Cn1cncn1)c1ccc(F)cc1F [FLUCONAZOLE]    16
3. CCCCCOc1ccc(-c2cc(-c3ccc(C(=O)N[C@H]4C[C@@H](O)[C@@H](O)NC(=O)[C@@H]5[C@@H](O)[C@@H](C)CN5C(=O)[C@H]([C@H](O)CC(N)=O)NC(=O)[C@H]([C@H](O)[C@@H](O)c5ccc(O)c(OS(=O)(=O)O)c5)NC(=O)[C@@H]5C[C@@H](O)CN5C(=O)[C@H]([C@@H](C)O)NC4=O)cc3)no2)cc1 [MICAFUNGIN] (X1-[Orn(4R-OH,5R-OH)]T[Hyp][hTyr(3S-OH,4S-OH,3'-OSO3H)][Gln(3R-OH)][Pro(3S-OH,4S-Me)]; lactam 1-C)    0.5
4. N=C(N)c1ccc(OCCCC2CCN(CCCOc3ccc(C(=N)N)cc3)CC2)cc1    4
